molecular target: bFGF (Homo sapiens); assay: Biacore biosensor: inhibition of bFGF binding to immobilised heparin and heparan sulfate; settings: immobilised heparan sulfate; inhibitor 0.034 μM, bFGF 0.034 μM; read-out: Inhibition of binding of bFGF (HS)
Sequence (P09038 134-288 limits assumed, species assumed): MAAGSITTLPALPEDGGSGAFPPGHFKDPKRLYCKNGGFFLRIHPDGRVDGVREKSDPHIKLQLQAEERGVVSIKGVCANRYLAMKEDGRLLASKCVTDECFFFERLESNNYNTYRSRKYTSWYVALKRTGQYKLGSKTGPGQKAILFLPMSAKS
Reported Metric: inhibition at 0.034 µM (%)
Number only, in %; omit the unit.

The recorded inhibition at 0.034 µM with bFGF (Homo sapiens) for O=S(=O)(O)O[C@H]1[C@H](OS(=O)(=O)O)[C@@H](N(CCCCCCCCCN([C@H]2C=C[C@@H](OS(=O)(=O)O)[C@@H](OS(=O)(=O)O)[C@@H]2OS(=O)(=O)O)[C@H]2C=C[C@@H](OS(=O)(=O)O)[C@@H](OS(=O)(=O)O)[C@@H]2OS(=O)(=O)O)[C@H]2C=C[C@@H](OS(=O)(=O)O)[C@@H](OS(=O)(=O)O)[C@@H]2OS(=O)(=O)O)C=C[C@H]1OS(=O)(=O)O was 43

Case O=S(=O)(O)O[C@H]1[C@H](OS(=O)(=O)O)[C@@H](N(CCCCCCCCN([C@H]2C=C[C@@H](OS(=O)(=O)O)[C@@H](OS(=O)(=O)O)[C@@H]2OS(=O)(=O)O)[C@H]2C=C[C@@H](OS(=O)(=O)O)[C@@H](OS(=O)(=O)O)[C@@H]2OS(=O)(=O)O)[C@H]2C=C[C@@H](OS(=O)(=O)O)[C@@H](OS(=O)(=O)O)[C@@H]2OS(=O)(=O)O)C=C[C@H]1OS(=O)(=O)O , bFGF (Homo sapiens), inhibition at 0.034 µM recorded as 51

Hey, bFGF (Homo sapiens) data for O=S(=O)(O)O[C@H]1[C@H](OS(=O)(=O)O)[C@@H](N(CCCCCCCN([C@H]2C=C[C@@H](OS(=O)(=O)O)[C@@H](OS(=O)(=O)O)[C@@H]2OS(=O)(=O)O)[C@H]2C=C[C@@H](OS(=O)(=O)O)[C@@H](OS(=O)(=O)O)[C@@H]2OS(=O)(=O)O)[C@H]2C=C[C@@H](OS(=O)(=O)O)[C@@H](OS(=O)(=O)O)[C@@H]2OS(=O)(=O)O)C=C[C@H]1OS(=O)(=O)O : inhibition at 0.034 µM came out at 48

Record O=S(=O)(O)O[C@H]1[C@H](OS(=O)(=O)O)[C@@H](N(CCCCN([C@H]2C=C[C@@H](OS(=O)(=O)O)[C@@H](OS(=O)(=O)O)[C@@H]2OS(=O)(=O)O)[C@H]2C=C[C@@H](OS(=O)(=O)O)[C@@H](OS(=O)(=O)O)[C@@H]2OS(=O)(=O)O)[C@H]2C=C[C@@H](OS(=O)(=O)O)[C@@H](OS(=O)(=O)O)[C@@H]2OS(=O)(=O)O)C=C[C@H]1OS(=O)(=O)O has bFGF (Homo sapiens) inhibition at 0.034 µM equal to 44

###

For each entry below, report its inhibition at 0.034 µM value.
target: bFGF (Homo sapiens); assay: Biacore biosensor: inhibition of bFGF binding to immobilised heparin and heparan sulfate; settings: immobilised heparin; inhibitor 0.034 μM, bFGF 0.034 μM; read-out: Inhibition of binding of bFGF (Hep)

Query O=S(=O)(O)O[C@H]1[C@H](OS(=O)(=O)O)[C@@H](N(CCCCCN([C@H]2C=C[C@@H](OS(=O)(=O)O)[C@@H](OS(=O)(=O)O)[C@@H]2OS(=O)(=O)O)[C@H]2C=C[C@@H](OS(=O)(=O)O)[C@@H](OS(=O)(=O)O)[C@@H]2OS(=O)(=O)O)[C@H]2C=C[C@@H](OS(=O)(=O)O)[C@@H](OS(=O)(=O)O)[C@@H]2OS(=O)(=O)O)C=C[C@H]1OS(=O)(=O)O yields inhibition at 0.034 µM of 36%

According to the records, this molecule O=S(=O)(O)OC(CN([C@H]1C=C[C@@H](OS(=O)(=O)O)[C@@H](OS(=O)(=O)O)[C@@H]1OS(=O)(=O)O)[C@H]1C=C[C@@H](OS(=O)(=O)O)[C@@H](OS(=O)(=O)O)[C@@H]1OS(=O)(=O)O)CN([C@H]1C=C[C@@H](OS(=O)(=O)O)[C@@H](OS(=O)(=O)O)[C@@H]1OS(=O)(=O)O)[C@H]1C=C[C@@H](OS(=O)(=O)O)[C@@H](OS(=O)(=O)O)[C@@H]1OS(=O)(=O)O displays inhibition at 0.034 µM of 34%

According to the records, this molecule O=S(=O)(O)O[C@H]1[C@H](OS(=O)(=O)O)[C@@H](N(CCCCCCCN([C@H]2C=C[C@@H](OS(=O)(=O)O)[C@@H](OS(=O)(=O)O)[C@@H]2OS(=O)(=O)O)[C@H]2C=C[C@@H](OS(=O)(=O)O)[C@@H](OS(=O)(=O)O)[C@@H]2OS(=O)(=O)O)[C@H]2C=C[C@@H](OS(=O)(=O)O)[C@@H](OS(=O)(=O)O)[C@@H]2OS(=O)(=O)O)C=C[C@H]1OS(=O)(=O)O displays inhibition at 0.034 µM of 40%

Looking up O=S(=O)(O)O[C@H]1[C@H](OS(=O)(=O)O)[C@@H](N(CCCN([C@H]2C=C[C@@H](OS(=O)(=O)O)[C@@H](OS(=O)(=O)O)[C@@H]2OS(=O)(=O)O)[C@H]2C=C[C@@H](OS(=O)(=O)O)[C@@H](OS(=O)(=O)O)[C@@H]2OS(=O)(=O)O)[C@H]2C=C[C@@H](OS(=O)(=O)O)[C@@H](OS(=O)(=O)O)[C@@H]2OS(=O)(=O)O)C=C[C@H]1OS(=O)(=O)O , I found its inhibition at 0.034 µM recorded as 20%

inhibition at 0.034 µM reading for O=S(=O)(O)O[C@H]1[C@H](OS(=O)(=O)O)[C@@H](N(CCCCCCCCCCN([C@H]2C=C[C@@H](OS(=O)(=O)O)[C@@H](OS(=O)(=O)O)[C@@H]2OS(=O)(=O)O)[C@H]2C=C[C@@H](OS(=O)(=O)O)[C@@H](OS(=O)(=O)O)[C@@H]2OS(=O)(=O)O)[C@H]2C=C[C@@H](OS(=O)(=O)O)[C@@H](OS(=O)(=O)O)[C@@H]2OS(=O)(=O)O)C=C[C@H]1OS(=O)(=O)O : 34%

Entry O=S(=O)(O)O[C@H]1[C@H](OS(=O)(=O)O)[C@@H](N(CCCCCCCCN([C@H]2C=C[C@@H](OS(=O)(=O)O)[C@@H](OS(=O)(=O)O)[C@@H]2OS(=O)(=O)O)[C@H]2C=C[C@@H](OS(=O)(=O)O)[C@@H](OS(=O)(=O)O)[C@@H]2OS(=O)(=O)O)[C@H]2C=C[C@@H](OS(=O)(=O)O)[C@@H](OS(=O)(=O)O)[C@@H]2OS(=O)(=O)O)C=C[C@H]1OS(=O)(=O)O , inhibition at 0.034 µM reported as 45%

Per the records, this molecule ( O=S(=O)(O)O[C@H]1[C@H](OS(=O)(=O)O)[C@@H](N(CCN([C@H]2C=C[C@@H](OS(=O)(=O)O)[C@@H](OS(=O)(=O)O)[C@@H]2OS(=O)(=O)O)[C@H]2C=C[C@@H](OS(=O)(=O)O)[C@@H](OS(=O)(=O)O)[C@@H]2OS(=O)(=O)O)[C@H]2C=C[C@@H](OS(=O)(=O)O)[C@@H](OS(=O)(=O)O)[C@@H]2OS(=O)(=O)O)C=C[C@H]1OS(=O)(=O)O ) has inhibition at 0.034 µM equal to 15%

Kindly note the recorded inhibition at 0.034 µM for O=S(=O)(O)O[C@H]1[C@H](OS(=O)(=O)O)[C@@H](N(CCCCN([C@H]2C=C[C@@H](OS(=O)(=O)O)[C@@H](OS(=O)(=O)O)[C@@H]2OS(=O)(=O)O)[C@H]2C=C[C@@H](OS(=O)(=O)O)[C@@H](OS(=O)(=O)O)[C@@H]2OS(=O)(=O)O)[C@H]2C=C[C@@H](OS(=O)(=O)O)[C@@H](OS(=O)(=O)O)[C@@H]2OS(=O)(=O)O)C=C[C@H]1OS(=O)(=O)O , which is 31%

Reported inhibition at 0.034 µM for O=S(=O)(O)O[C@H]1[C@H](OS(=O)(=O)O)[C@@H](N(CCCCCCCCCN([C@H]2C=C[C@@H](OS(=O)(=O)O)[C@@H](OS(=O)(=O)O)[C@@H]2OS(=O)(=O)O)[C@H]2C=C[C@@H](OS(=O)(=O)O)[C@@H](OS(=O)(=O)O)[C@@H]2OS(=O)(=O)O)[C@H]2C=C[C@@H](OS(=O)(=O)O)[C@@H](OS(=O)(=O)O)[C@@H]2OS(=O)(=O)O)C=C[C@H]1OS(=O)(=O)O was 46%
